Cited source for all entries: PubChem BioAssay AID2202241

procedure text: Identification of antibody-drug conjugate (ADC) payloads which are substrates of ATP-binding cassette drug efflux transporters: cell line panel data
measurement parameters: 99 cancer cell line panel, CellTiter-Glo viability, 48 h; hits give low values
Active and inactive are the calls of the source. The rule behind the calls is not given here. Square brackets hold non-standard residues; d marks the D form. Peptide text beside a SMILES is read from it. * marks the point of attachment. Dolaproine = CO[C@@H]([C@@H]1CCCN1)[C@@H](C)C(=O)O; Dil = CC[C@H](C)[C@H](NC)[C@@H](CC(=O)O)OC; NMe2Val = CC(C)[C@@H](C(=O)*)N(C)C
reported metric: viability AUC

CC[C@H](C)[C@H](NC(=O)[C@H]1CCCCN1C)C(=O)N(C)[C@H](C[C@@H](OC(C)=O)c1nc(C(=O)O)cs1)C(C)C | 982 (active)
COc1cc2cc(c1Cl)N(C)C(=O)C[C@H](OC(=O)[C@H](C)N(C)C(=O)CCC(C)(C)S)[C@]1(C)OC1[C@H](C)C1C[C@@](O)(NC(=O)O1)[C@H](OC)/C=C/C=C(\C)C2 (stereo partly specified) | 777 (active)

Recall and state the measured viability AUC for CC[C@H](C)[C@@H]1NC(=O)CNC(=O)[C@H]2Cc3c([nH]c4cc(O)ccc34)S(=O)C[C@H](NC(=O)CNC1=O)C(=O)N[C@@H](CC(N)=O)C(=O)N1C[C@H](O)C[C@H]1C(=O)N[C@@H]([C@@H](C)[C@@H](O)CO)C(=O)N2 (stereo partly specified) .
992 (active)

Indicate its recorded viability AUC; the compound in question is CC[C@H](C)[C@@H]([C@@H](CC(=O)N1CCC[C@H]1[C@H](OC)[C@@H](C)C(=O)N[C@@H](Cc1ccccc1)C(=O)O)OC)N(C)C(=O)[C@@H](NC(=O)[C@H](C(C)C)N(C)C)C(C)C (NMe2Val-V[Dil][Dolaproine]F-OH)
932 (active)

Look up and state reported viability AUC for CC[C@H](C)[C@@H]([C@@H](CC(=O)N1CCC[C@H]1[C@H](OC)[C@@H](C)C(=O)N[C@H](C)[C@@H](O)c1ccccc1)OC)N(C)C(=O)[C@@H](NC(=O)[C@H](C(C)C)N(C)C)C(C)C
699 (active)

For the compound CC[C@H](C)[C@H](NC(=O)[C@H]1CCCCN1C)C(=O)N(C)[C@H](C[C@@H](OC(C)=O)c1nc(C(=O)N[C@@H](Cc2ccccc2)C[C@H](C)C(=O)O)cs1)C(C)C , report viability AUC.
793 (active)
